Taken from ChEMBL document CHEMBL3407344.

assay: Toxicity in orally dosed mouse; format: organism-based; conditions: in vivo, po
Endpoint Label: LD50 (mg/kg)
Please give a number only; it is taken to be in mg/kg.

Exercise: Retrieve LD50 measured for CC(C)/N=c1\cc2n(-c3ccc(Cl)cc3)c3ccccc3nc-2cc1Nc1ccc(Cl)cc1 [CLOFAZIMINE] and print it.
Solution: 5000

###

system: Plasma; assay: Plasma concentration in leprosy patient at […], po dosed daily; format: ADME, organism-based; parameters: route oral; settings: human, in vivo
Endpoint Label: concentration

Exercise: Annotate the molecule CC(C)/N=c1\cc2n(-c3ccc(Cl)cc3)c3ccccc3nc-2cc1Nc1ccc(Cl)cc1 [CLOFAZIMINE] with its measured concentration.
Solution: 2100 nM

###

target: UniProt P25779; test: Inhibition of Trypanosoma cruzi cruzaine at 100 uM using mMBz-Pro-Phe-Arg-pNA substrate incubated for 5 mins by UV-vis spectrophotometry
Sequence (P25779 123-467 limits assumed): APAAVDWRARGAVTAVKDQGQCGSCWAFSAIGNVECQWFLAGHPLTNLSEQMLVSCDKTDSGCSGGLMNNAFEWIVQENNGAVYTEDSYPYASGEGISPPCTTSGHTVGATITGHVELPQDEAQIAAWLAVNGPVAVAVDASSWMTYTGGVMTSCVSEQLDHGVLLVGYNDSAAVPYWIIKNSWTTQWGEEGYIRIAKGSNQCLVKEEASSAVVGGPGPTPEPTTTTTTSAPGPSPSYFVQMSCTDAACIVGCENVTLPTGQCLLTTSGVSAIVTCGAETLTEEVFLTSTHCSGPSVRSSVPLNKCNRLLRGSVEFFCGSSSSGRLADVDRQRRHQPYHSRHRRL
Active and inactive are the calls of the source. The calls are words filed in the database; no cut-off is given here.
Use one of these outcomes when replying: true (active), false (inactive)

>>> label_value("CC(C)/N=c1\\cc2n(-c3ccc(Cl)cc3)c3ccccc3nc-2cc1Nc1ccc(Cl)cc1 [CLOFAZIMINE]")
"true"
>>> label_value("COc1ccc(CCN(C)CCCC(C#N)(c2ccc(OC)c(OC)c2)C(C)C)cc1OC (centres undefined)")
"false"
>>> label_value("CC(C)(C)NC(=O)[C@@H]1C[C@@H]2CCCC[C@@H]2CN1C[C@@H](O)[C@H](Cc1ccccc1)NC(=O)[C@H](CC(N)=O)NC(=O)c1ccc2ccccc2n1 [SAQUINAVIR]")
"true"

Exercise: Any idea what this test logged for COC(=O)C1=C(C)NC(C)=C(C(=O)OC2CCCN(Cc3ccccc3)C2)C1c1cccc([N+](=O)[O-])c1 (centres undefined) [BENIDIPINE] ?
Solution: true
